Values from patent US10266548B2

tested on: NCI-H460 cells; test: Proliferation assay (H460 cell line); format: cell-based; details: Homo sapiens, NCI-H460, 96 h, H460, 4 days, crystal violet; read-out: Biological Assay 2: Proliferation assay (H460 cell line) median IC50
Flag rule - IC50 less than 3 µM flags 1.0; the remaining entries get 0.0.

Structure Smiles String	Discrete Label
CN(C)CCOc1cnc(-c2nn(Cc3ccccc3F)c3ccccc23)nc1Nc1ccncc1	0.0
CCCc1ccc(Cn2nc(-c3ncc(OC)c(Nc4ccncc4)n3)c3ccccc32)cc1	0.0
CCOc1cc(F)c(Cn2nc(-c3ncc(OCCO)c(Nc4ccncc4)n3)c3ccccc32)c(F)c1	1.0
COC(=O)c1ccc(Cl)c(Cn2nc(-c3ncc(OC)c(Nc4ccncc4)n3)c3ccccc32)c1Cl	1.0
COc1cnc(-c2nn(Cc3cc4c(cc3Br)OCO4)c3ccccc23)nc1Nc1ccncc1	0.0
CCOc1cc(F)c(Cn2nc(-c3ncc(OC)c(Nc4ccncc4)n3)c3ccccc32)c(F)c1	1.0

====

target: catalytic domain of human Bub1 (amino acids 704-1085) (Homo sapiens (Human))
Classes (IC50): Low: < 20 nM; Medium: ≥ 20 nM and < 100 nM; High: ≥ 100 nM

Compound	Discrete Label
COc1cnc(-c2nn(Cc3ccccc3C#N)c3ccccc23)nc1Nc1ccncc1	Medium
CCOc1cc(F)c(Cn2nc(-c3ncc(OC)c(Nc4c(F)cncc4F)n3)c3ccccc32)c(F)c1	High
C#Cc1ccc(Cn2nc(-c3ncc(OC)c(Nc4ccncc4)n3)c3ccccc32)c(F)c1	Medium
COc1cnc(-c2nn(Cc3c(Cl)ccc(C(C)(C)O)c3Cl)c3ccccc23)nc1Nc1ccncc1	Medium
COc1ccc(Cn2nc(-c3ncc(OCC(F)(F)F)c(Nc4ccncc4)n3)c3ccccc32)cc1	Low
COc1cnc(-c2nn(Cc3ccc(SC(F)(F)F)cc3)c3ccccc23)nc1Nc1ccncc1	High
OC[C@H](O)COc1cnc(-c2nn(Cc3ccccc3F)c3ccccc23)nc1Nc1ccncc1 [Example 12-3]	Low
CCOC(=O)c1cnccc1Nc1nc(-c2nn(Cc3ccccc3F)c3ccccc23)ncc1O	Low
COc1cnc(-c2nn(Cc3ccccc3Br)c3ccccc23)nc1Nc1ccncc1	Low
COc1cnc(-c2nn(Cc3ccccc3F)c3ccccc23)nc1N(C)c1ccncc1	High
COc1cnc(-c2nn(Cc3ccc(I)cc3F)c3ccccc23)nc1Nc1ccncc1	Low
COc1cnc(-c2nn(Cc3cccc(C#N)c3)c3ccccc23)nc1Nc1ccncc1	High
COc1cnc(-c2nn(Cc3c(F)c(F)c(OC)c(F)c3F)c3ccccc23)nc1Nc1ccncc1	Low
COc1cnc(-c2nn(Cc3ccccc3Cl)c3ccccc23)nc1N(Cc1ccccc1Cl)c1ccncc1	High
COc1cnc(-c2nn(Cc3c(Cl)ccc(C(=O)N(C)C)c3Cl)c3ccccc23)nc1Nc1ccncc1	High
COc1cnc(-c2nn(Cc3ccc(S(=O)(=O)NC4CC4)cc3)c3ccccc23)nc1Nc1ccncc1	Medium

====

pIC50 values by entry
system: DU145 cells; test: Proliferation assay (DU145 cell line); format: cell-based; settings: Homo sapiens, DU-145, 96 h, DU145, 4 days, crystal violet; read-out: Biological Assay 2: Proliferation assay (DU145 cell line) median IC50
pIC50: −log10 of the molar value.

Structure Smiles String	pIC50
CN(C)CCOc1cnc(-c2nn(Cc3ccccc3F)c3ccccc23)nc1Nc1ccncc1	5.35
COC(=O)c1ccc(Cl)c(Cn2nc(-c3ncc(OC)c(Nc4ccncc4)n3)c3ccccc32)c1Cl	5.70
COc1cnc(-c2nn(Cc3c(F)ccc(OC)c3F)c3ccccc23)nc1Nc1ccncc1	5.48
COc1cnc(-c2nn(Cc3c(Cl)ccc(C(F)(F)F)c3Cl)c3ccccc23)nc1Nc1ccncc1	5.59
CCCc1ccc(Cn2nc(-c3ncc(OC)c(Nc4ccncc4)n3)c3ccccc32)cc1	5.00
CCOc1cc(F)c(Cn2nc(-c3ncc(OCCO)c(Nc4ccncc4)n3)c3ccccc32)c(F)c1	5.80
COc1cnc(-c2nn(Cc3c(Cl)ccc(NC(C)=O)c3Cl)c3ccccc23)nc1Nc1ccncc1	5.00
COc1cnc(-c2nn(Cc3cc4c(cc3Br)OCO4)c3ccccc23)nc1Nc1ccncc1	5.60
COC(=O)c1ccc(Cn2nc(-c3ncc(OC)c(Nc4ccncc4)n3)c3ccccc32)c(Cl)c1	5.52
CNC(=O)c1ccc(Cl)c(Cn2nc(-c3ncc(OC)c(Nc4ccncc4)n3)c3ccccc32)c1Cl	5.52
CCOc1cc(F)c(Cn2nc(-c3ncc(OC)c(Nc4ccncc4)n3)c3ccccc32)c(F)c1	5.77
CCOc1cc(F)c(Cn2nc(-c3ncc(OC(F)F)c(N(c4ccncc4)C(F)F)n3)c3ccccc32)c(F)c1	5.85
COc1cnc(-c2nn(Cc3ccc4c(C)cc(=O)oc4c3)c3ccccc23)nc1Nc1ccncc1	5.28

====

molecular target: catalytic domain of human Bub1 (amino acids 704-1085) (Homo sapiens (Human), UniProt O43683)
Sequence (O43683 704-1085): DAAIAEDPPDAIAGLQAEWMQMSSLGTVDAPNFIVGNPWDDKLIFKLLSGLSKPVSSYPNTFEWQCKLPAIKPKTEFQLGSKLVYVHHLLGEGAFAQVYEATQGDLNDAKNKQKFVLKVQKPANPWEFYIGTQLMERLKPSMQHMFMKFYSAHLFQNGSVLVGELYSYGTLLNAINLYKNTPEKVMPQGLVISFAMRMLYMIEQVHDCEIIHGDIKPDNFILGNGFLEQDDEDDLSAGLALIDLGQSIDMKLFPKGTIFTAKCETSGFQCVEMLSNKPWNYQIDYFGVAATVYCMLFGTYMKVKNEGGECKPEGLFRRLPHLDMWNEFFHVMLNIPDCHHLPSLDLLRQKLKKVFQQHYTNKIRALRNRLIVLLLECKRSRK
Readout Name: IC50 (nM)

Compound	Readout Name	Result Unit	Experimental Value
COc1cnc(-c2nn(Cc3ccc(Cl)cc3Cl)c3ccccc23)nc1Nc1ccncc1 [Example 2-19-1]	IC50	nM	10
COc1cnc(-c2nn(Cc3cc4c(cc3Br)OCO4)c3ccccc23)nc1Nc1ccncc1 [Example 2-4-3]	IC50	nM	14
CCOc1ccc(Cn2nc(-c3ncc(OC)c(Nc4ccncc4)n3)c3ccccc32)c(F)c1F [Example 2-14-1]	IC50	nM	8.3
CCOc1cc(F)c(Cn2nc(-c3nccc(Nc4ccncc4)n3)c3ccccc32)c(F)c1 [Example 5-1]	IC50	nM	5.2

====

biological target: catalytic domain of human Bub1 (amino acids 704-1085) (Homo sapiens (Human))

Molecule	IC50 / nM
COc1cnc(-c2nn(Cc3c(Cl)cccc3Cl)c3ccccc23)nc1Nc1ccncc1 [Example 2-9-1]	6.7
COc1cnc(-c2nn(Cc3c(Cl)cc(OC(F)(F)F)cc3Cl)c3ccccc23)nc1N(Cc1c(Cl)cc(OC(F)(F)F)cc1Cl)c1ccncc1	840
COc1ccc(Cn2nc(-c3ncc(OC)c(Nc4cc(F)nc(F)c4)n3)c3ccccc32)cc1	6200
CCOc1cc(F)c(Cn2nc(-c3ncc(OCCNC(=O)OC(C)(C)C)c(Nc4ccncc4)n3)c3ccccc32)c(F)c1	9.3
N#Cc1cnc(-c2nn(Cc3ccccc3F)c3ccccc23)nc1Nc1ccncc1	4700
COc1cnc(-c2nn(Cc3ccc(-n4cccn4)cc3)c3ccccc23)nc1Nc1ccncc1	57
NC(=O)c1cnccc1Nc1nc(-c2nn(Cc3ccccc3F)c3ccccc23)ncc1O	17
COc1cnc(-c2nn(Cc3c(Cl)ccc(C(=O)O)c3Cl)c3ccccc23)nc1Nc1ccncc1	20000
Fc1ccccc1Cn1nc(-c2ncc(OCCc3nnn[nH]3)c(N(CCc3nnn[nH]3)c3ccncc3)n2)c2ccccc21	330
CCOc1cc(F)c(Cn2nc(-c3ncc(OCC4(CO)COC4)c(Nc4ccncc4)n3)c3ccccc32)c(F)c1	2.4
COc1cnc(-c2nn(Cc3ccc(C)c(F)c3F)c3ccccc23)nc1N(Cc1ccc(C)c(F)c1F)c1ccncc1	290
COc1cnc(-c2nn(Cc3c(F)cc(OCCOC(C)=O)cc3F)c3ccccc23)nc1Nc1ccncc1	10
CCOc1cc(F)c(Cn2nc(-c3ncc(OC)c(Nc4ccncc4)n3)c3ccccc32)c(F)c1 [Example 15-1]	5.2
COc1cnc(-c2nn(Cc3c(Cl)cccc3C(F)(F)F)c3ccccc23)nc1Nc1ccncc1	23
COc1cnc(-c2nn(Cc3ccccc3F)c3ccccc23)nc1N(c1ccncc1)c1ccncc1	4280

====

biological target: catalytic domain of human Bub1 (amino acids 704-1085) (Homo sapiens (Human), UniProt O43683)

Compound	IC50 (nM)
COc1ccc(Cn2nc(-c3ncc(OC)c(Nc4ccncc4)n3)c3ccccc32)c(Cl)c1	4.7
COc1cnc(-c2nn(Cc3ccc(C(=O)OC(C)(C)C)cc3Cl)c3ccccc23)nc1Nc1ccncc1	120
COc1cnc(-c2nn(Cc3c(F)ccc(C)c3F)c3ccccc23)nc1Nc1ccncc1	5.5
CNC(=O)c1ccc(Cn2nc(-c3ncc(OC)c(Nc4ccncc4)n3)c3ccccc32)c(Cl)c1 [Example 29-1]	11
CCOc1cc(F)c(Cn2nc(-c3ncc(OCCN(C)C)c(Nc4ccncc4)n3)c3ccccc32)c(F)c1	8
COc1cnc(-c2nn(Cc3c(Cl)ccc(C(=O)NCCO)c3Cl)c3ccccc23)nc1Nc1ccncc1	750
COC(=O)c1cnccc1Nc1nc(-c2nn(Cc3ccccc3F)c3ccccc23)ncc1OC	20000
CCCc1ccc(Cn2nc(-c3ncc(OC)c(Nc4ccncc4C(N)=O)n3)c3ccccc32)cc1	5.4

====

Known pIC50 of a selection of compounds
tested on: Caco2 cells; test: Proliferation assay (Caco2 cell line); assay type: cell-based; conditions: Caco2, 4 days, crystal violet; read-out: Biological Assay 2: Proliferation assay (Caco2 cell line) median IC50
pIC50: −log10 of the molar value.

Compound	pIC50
CCOc1cc(F)c(Cn2nc(-c3ncc(OC)c(Nc4ccncc4)n3)c3ccccc32)c(F)c1 [Example 15-1]	5.92
CCOc1cc(F)c(Cn2nc(-c3ncc(OCC4CNCCO4)c(Nc4ccncc4)n3)c3ccccc32)c(F)c1 (centres unmarked) [Example 38-2]	6.22
